molecular target: Melanocortin receptor 3 (Homo sapiens, UniProt P41968); test: Displacement of [125I]NDP-MSH from human recombinant MC3 receptor expressed in Sf9 cells
Sequence (P41968 whole entry): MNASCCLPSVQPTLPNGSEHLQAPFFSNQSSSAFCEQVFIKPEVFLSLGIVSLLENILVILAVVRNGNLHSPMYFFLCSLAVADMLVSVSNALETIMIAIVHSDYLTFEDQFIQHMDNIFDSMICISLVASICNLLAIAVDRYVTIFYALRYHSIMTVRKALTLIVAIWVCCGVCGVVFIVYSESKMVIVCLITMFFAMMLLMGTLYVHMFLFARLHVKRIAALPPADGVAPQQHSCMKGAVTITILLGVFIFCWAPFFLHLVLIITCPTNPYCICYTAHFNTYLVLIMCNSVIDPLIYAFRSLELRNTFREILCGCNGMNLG
Binary call on Ki with cut-off 20 µM: strictly below means MET, and equality or higher means NOT MET.

Please review the entries below; each comes with its answer.
NC1CCC(CC2CCC(N(C/C(Cl)=C/c3ccccc3)C(=O)CCCc3c[nH]c4ccccc34)CC2)CC1 (stereo in doubt; form 3): NOT MET
CCOc1cc(CN(C(=O)CCCc2c[nH]c3ccccc23)C2CCC(CC3CCC(N)CC3)CC2)ccc1OC (stereo not given): MET
CC1CC(CC2CCC(N(Cc3ccccc3)C(=O)CCCc3c[nH]c4ccccc34)C(C)C2)CCC1N (stereo in doubt; form 4): MET
NC1CCC(CC2CCC(N(C/C(Cl)=C/c3ccccc3)C(=O)COc3ccc4ccccc4c3)CC2)CC1 (stereo in doubt; form 5): NOT MET
NCc1ccc(CN(Cc2ccc3ccccc3c2)C(=O)CCCc2c[nH]c3ccccc23)cc1: NOT MET
C/C(=C\c1ccccc1)CN(CCCN)C(=O)CCCc1cccs1: NOT MET

Does the reported Ki of the following compound sit strictly below 20 µM? NCCCN(C/C(Cl)=C/c1ccccc1)C(=O)CCCc1c[nH]c2ccccc12
MET

Does the reported Ki of the following compound sit strictly below 20 µM? NCCCCCN(CCc1ccc2ccccc2c1)C(=O)Cc1c[nH]c2ccccc12
MET

Does the reported Ki of the following compound sit strictly below 20 µM? NCc1cccc(CN(Cc2ccc3ccccc3c2)C(=O)CCCc2c[nH]c3ccccc23)c1
MET

Does the reported Ki of the following compound sit strictly below 20 µM? Cc1cccc(CN(C(=O)CCCc2c(Cc3ccc(O)cc3)[nH]c3ccccc23)C2CCC(CC3CCC(N)CC3)CC2)c1 (stereo not given)
NOT MET

Does the reported Ki of the following compound sit strictly below 20 µM? COc1cc(Br)c(CN(C(=O)CCCc2c(Cc3ccc(O)cc3)[nH]c3ccccc23)[C@H]2CC[C@@H](C[C@H]3CC[C@H](N)CC3)CC2)cc1OC
MET

Does the reported Ki of the following compound sit strictly below 20 µM? NCCCN1CCN(CCCN(Cc2ccccc2)C(=O)CCCc2c[nH]c3ccccc23)CC1
NOT MET

Does the reported Ki of the following compound sit strictly below 20 µM? NCCCCN(Cc1ccc2ccccc2c1)C(=O)c1c[nH]c2ccccc12
MET

Does the reported Ki of the following compound sit strictly below 20 µM? C/C(=C\c1ccccc1)CN(CCCN)C(=O)Cc1c[nH]c2ccccc12
NOT MET

Does the reported Ki of the following compound sit strictly below 20 µM? NCCN(C/C(Cl)=C/c1ccccc1)C(=O)CCCc1c[nH]c2ccccc12
NOT MET

Does the reported Ki of the following compound sit strictly below 20 µM? NCCCN1CCN(CCCN(C/C(Cl)=C/c2ccccc2)C(=O)CCCc2c[nH]c3ccccc23)CC1
NOT MET

Does the reported Ki of the following compound sit strictly below 20 µM? NC1CCC(CC2CCC(N(Cc3ccccn3)C(=O)CCCc3c[nH]c4ccccc34)CC2)CC1 (stereo not given)
NOT MET

Does the reported Ki of the following compound sit strictly below 20 µM? NC1CCC(CC2CCC(N(C/C=C/c3ccccc3)C(=O)CCCc3c[nH]c4ccccc34)CC2)CC1 (stereo not given)
MET

###

target: Melanocortin receptor 4 (Homo sapiens); experiment: Displacement of [125I]NDP-MSH from human recombinant MC4 receptor expressed in Sf9 cells
Sequence (P32245 whole entry): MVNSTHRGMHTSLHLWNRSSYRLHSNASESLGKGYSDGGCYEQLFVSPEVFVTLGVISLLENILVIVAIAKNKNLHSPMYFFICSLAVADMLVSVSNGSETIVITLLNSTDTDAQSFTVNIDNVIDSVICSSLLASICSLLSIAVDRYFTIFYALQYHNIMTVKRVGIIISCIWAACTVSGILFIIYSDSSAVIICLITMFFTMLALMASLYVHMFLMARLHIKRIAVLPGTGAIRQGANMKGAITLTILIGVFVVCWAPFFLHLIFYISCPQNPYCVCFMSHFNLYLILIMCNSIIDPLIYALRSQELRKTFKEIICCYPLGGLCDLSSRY
Quantity measured: Ki (µM)
I only need the number, in µM, no unit after it.

Please review the following examples before continuing.
COc1ccccc1/C=C/CN(C(=O)CCCc1c[nH]c2ccccc12)C1CCC(CC2CCC(N)CC2)CC1 (stereo in doubt; form 1): 4.9
NC1CCC(CC2CCC(N(Cc3c(Cl)cccc3Cl)C(=O)CCCc3c(Cc4ccc(O)cc4)[nH]c4ccccc34)CC2)CC1 (configuration not stated): 5.3
CC1CC(CC2CCC(N(C/C(Cl)=C/c3ccccc3)C(=O)CCCc3c[nH]c4ccccc34)C(C)C2)CCC1N (stereo in doubt; form 1): 7.7
NC1CCC(CC2CCC(N(Cc3ccccc3Cl)C(=O)CCCc3c[nH]c4ccccc34)CC2)CC1 (configuration not stated): 2.8

Could you share which Ki value was measured for CCN(CC)c1ccc(CN(CCCCCN)C(=O)CCCc2c[nH]c3ccccc23)cc1 ?
25

Could you share which Ki value was measured for NC1CCC(CC2CCC(N(C/C(Cl)=C/c3ccccc3)C(=O)COc3ccc4ccccc4c3)CC2)CC1 (stereo in doubt; form 5) ?
3.5

Could you share which Ki value was measured for COc1ccc(CN(C(=O)CCCc2c(Cc3ccc(O)cc3)[nH]c3ccccc23)C2CCC(CC3CCC(N)CC3)CC2)cc1Br (configuration not stated) ?
2.5

Could you share which Ki value was measured for NC1CCC(CC2CCC(N(Cc3ccccc3)C(=O)CCCc3c[nH]c4ccccc34)CC2)CC1 (stereo in doubt) ?
2.6

Could you share which Ki value was measured for NCCCN(C(=O)CCc1c[nH]c2ccccc12)C1CCc2ccccc2C1 (configuration not stated) ?
7

Could you share which Ki value was measured for N#Cc1ccc(CN(C(=O)CCCc2c(Cc3ccc(O)cc3)[nH]c3ccccc23)C2CCC(CC3CCC(N)CC3)CC2)cc1 (configuration not stated) ?
2.4

Could you share which Ki value was measured for C/C(=C\c1ccccc1)CN(CCCCCCN)C(=O)c1cc2cc(O)ccc2[nH]1 ?
11

Could you share which Ki value was measured for NCCCCCN(Cc1ccc2c(c1)OCO2)C(=O)CCCc1c[nH]c2ccccc12 ?
12

Could you share which Ki value was measured for NC1CCC(CC2CCC(N(Cc3ccncc3)C(=O)CCCc3c[nH]c4ccccc34)CC2)CC1 (stereo in doubt; form 2) ?
5.6

Could you share which Ki value was measured for N=C(N)NCCN(Cc1ccc2ccccc2c1)C(=O)CCc1c[nH]c2ccccc12 ?
149

Could you share which Ki value was measured for NC1CCC(CC2CCC(N(Cc3ccccc3)C(=O)CCCc3c[nH]c4ccccc34)CC2)CC1 (stereo in doubt; 10d-40-8) ?
8.3

Could you share which Ki value was measured for COc1ccc(CN(C(=O)CCCc2c(Cc3ccc(O)cc3)[nH]c3ccccc23)C2CCC(CC3CCC(N)CC3)CC2)cc1OC (configuration not stated) ?
2.4

Could you share which Ki value was measured for NCCCN(C/C=C/c1ccccc1)C(=O)C(=O)c1c[nH]c2ccccc12 ?
5

Could you share which Ki value was measured for NCCCCCN(C/C(Cl)=C\c1ccccc1)C(=O)CCCc1c[nH]c2ccccc12 ?
2.3

Could you share which Ki value was measured for C/C(=C\c1ccccc1)CN(CCCN)C(=O)c1c[nH]c2ccccc12 ?
7.4

Could you share which Ki value was measured for CC1CC(CC2CCC(N(Cc3ccccc3)C(=O)CCCc3c[nH]c4ccccc34)C(C)C2)CCC1N (stereo in doubt; form 4) ?
3.8
